molecular target: Estrogen receptor (Homo sapiens); experiment: qHTS assay to identify small molecule agonists of the estrogen receptor alpha (ER-alpha) signaling pathway using the BG1 cell line (AID 743079); settings: BG1Luc4E2 cells, ERE-luciferase agonist, 22 h; series mostly up to 70.3 µM; also: nearly all actives have a fitted effect of over 20% in size
Results filed as inconclusive are left out. Activity calls are given as the source filed them. Calls follow the shape of the dose curve; as a rule, active = well fitted activation curve with a large enough effect in the repeat runs; inconclusive = weak or mixed curves, or effect the other way; inactive = no such curve, though single readings can be large or run the other way.
Your reply should match one of these outcome classes. 1.0 (active), 0.0 (inactive)

Worked examples follow.
compound	label.value
CC(C)(O)Cc1ccccc1	0.0
Nc1nc(F)nc2c1ncn2[C@@H]1O[C@H](CO)[C@@H](O)[C@@H]1O	0.0
Nc1ccc2cc(S(=O)(=O)O)ccc2c1	0.0
CC(C)[N+](C)(C)CC(O)COc1cccc2ccccc12 (centres undefined)	0.0
C=C(C)C(=O)NCCC[N+](C)(C)C	0.0

Query: Dear colleague, could you share the recorded outcome for "CCO[Si](C)(OCC)OCC" when you have a moment?
Response: 0.0

Query: Each compound tested received a call. Report the one for O=C(O)C(O)[C@H](O)[C@@H](O)[C@H](O)[C@H](O)CO (some centres undefined) .
Response: 0.0

Query: Which result was noted for this compound in the test: "COC(=O)CCCCCCCCC(=O)OC"
Response: 0.0

Query: # fetch the recorded call for "COc1cccc(Br)c1" here
Response: 0.0

Query: Hi, do you know how "CCCC(=O)O[C@]1(C(=O)CCl)[C@@H](C)C[C@H]2[C@@H]3CCC4=CC(=O)C=C[C@]4(C)[C@@]3(F)C(=O)C[C@@]21C" came out in this test?
Response: 0.0
